These data points were gathered from ChEMBL document CHEMBL1157539.

- Tested on: Plasmodium falciparum
- Experiment summary: GSK_TCMDC: Inhibition of Plasmodium falciparum 3D7 in whole red blood cells, using parasite LDH activity as an index of growth. Test compounds present at 2uM
- Assay type: functional
Measurement kind: Inhibition (%)
The figure you give is taken to be in %; do not add the unit.

Some molecules with recorded Inhibition:
[[record]]
molecule = "CC1(C)N=C(N)N=C(N)N1OCCCc1ccccc1.Cl"
unit_text = "%"
experimental_result = 96

[[record]]
molecule = "O=C(N[C@H]1CCN(Cc2ccc(OCCN3CCCC3)c3ccccc23)C1)c1ccc(Cl)c(Cl)c1.O=C(O)C(F)(F)F"
unit_text = "%"
experimental_result = 100

[[record]]
molecule = "Clc1ccc(CNC2CCN(CC3CCCCC3)CC2)cc1.O=C(O)C(F)(F)F"
unit_text = "%"
experimental_result = 92

[[record]]
molecule = "O=C(c1ccc(-c2ccc(-c3nc4cc(F)ccc4[nH]3)cc2)cc1)N1CCCCC1CN1CCC(O)C1 (centres undefined)"
unit_text = "%"
experimental_result = 90

[[record]]
molecule = "COCCNCc1ccc(-c2ccc3c(Nc4ccc(Cl)cc4F)ccnc3c2)o1"
unit_text = "%"
experimental_result = 100


Next item in the queue.
`Br.CCCN(CCCCCCNCCc1ccc(Cl)cc1)CCc1ccc(O)c(O)c1` has a reported Inhibition of 91
